Could you please report measured apparent KD of MS2 coat protein for the items listed next?
- Test system: MS2 coat protein
- protocol-text: apparent KD of MS2 coat protein; designed switch direction (-1 OFF switch, 1 ON switch): -1; higher = weaker reporter binding
- test-conditions: input ligand: none
A number alone suffices; assume nM.

Inquiry: What value of apparent KD of MS2 coat protein on MS2 coat protein does GAAAACGCAGAGGAUAUUUCAGAUCCUAGCUGCAAAGAAGGCUGCACAUGAGGAUCACCCAUGUGGUCCUGAAA [Quesina mod] (Eterna round: R97, puzzle: Exclusion 6) have?
Reply text: 38.6

Inquiry: Give apparent KD of MS2 coat protein (MS2 coat protein) of the following sequence: CCGGCAUGAGGAUAUCCAUCUGGAUCAGACUAGAUCCUGAUGGAGAAGGCACAUGAGGAUCACCCAUGUUACGG [Eli 4x 4.38] (Eterna round: R97, puzzle: Exclusion 4)
Reply text: 173

Inquiry: GET /values?readout=apparent KD of MS2 coat protein&system=MS2 coat protein&item= UGAAUGUCAGAGGAUAUGCACGAUUGGACCGAGGCAGAAGGCUGAACAUGAGGAUCACCCAUGUCAAGAUCUUC [Eternabot (L1) Solution 93] (Eterna round: R97, puzzle: Exclusion 6)
Reply text: 26.3

Inquiry: Please tell me: apparent KD of MS2 coat protein of UAUUAAACAAGCAGGUCCCACAUGAGGAUCACCCAUGUGCUCGUCUUAUAAGGUACUGUGACGAAAGUCACGGUACC [Elimod 16 - Jieux - Sensor, turn-off variant 1] (Eterna round: R97, puzzle: Sensor, turn-off variant 1) , system MS2 coat protein?
Reply text: 40.1

Inquiry: What reported apparent KD of MS2 coat protein corresponds to UAAGCAAGCGAAAGAUCCCACAUGAGGAUCACCCAUGUGCUCGUCUUAUAAGGUACUGUGACGAAAGUCACGGUACC [Sensor 3, v1 - 91 v22] (Eterna round: R97, puzzle: Sensor, turn-off variant 1) on MS2 coat protein?
Reply text: 128

Inquiry: Query for MS2 coat protein: what apparent KD of MS2 coat protein does the record show for CCGUGUUUAGGAUAUGCUAUGGAAGUGUUAAUAUUCAUUAGACAUGAGGAUCACCCAUGUAGAAGGAGGCCGCG [Eternabot (L1) Solution 96] (Eterna round: R97, puzzle: Exclusion 2) ?
Reply text: 142

Inquiry: Notebook entry, MS2 coat protein assay: apparent KD of MS2 coat protein of UUUACAAGCUUAAGAUCCCACAUGAGGAUCACCCAUGUUGCUGCCGUGAGGUAGCUUUUAACUUAUGCUCGUCUUAU [JL TOV1 3.42] (Eterna round: R97, puzzle: Sensor, turn-off variant 1) = ?
Reply text: 110

Inquiry: Fill in the recorded apparent KD of MS2 coat protein for this sequence, with MS2 coat protein as test system: AAAUAGCUAGAGGAUAUUGGAUAGGAUUUAGUACGAGAAGGUUAGACAUGAGGAUCACCCAUGUUGUGUUGGGA [EX6 #16] (Eterna round: R97, puzzle: Exclusion 6)
Reply text: 52.9

Inquiry: API: value(readout= apparent KD of MS2 coat protein, system= MS2 coat protein, query= AGUGUGAGGCAGGAUAUGCUAUAUGUAAGUAAUGCAGAAGGGUCUACAUGAGGAUCACCCAUGUGUGCGGUUGA [Ex6 #9] (Eterna round: R97, puzzle: Exclusion 6) )
Reply text: 116

Inquiry: Field: apparent KD of MS2 coat protein (MS2 coat protein). Entry: AAGCUAUCUGUAGGAUAUACAACUGAUCUCGAGGUAGAAGGACAUCCAGUUACGCCAACAUGAGGAUCACCCAUGUGGAUCUUG [Eternabot solution 39] (Eterna round: R96, puzzle: Exclusion NG 1)
Reply text: 18.4

Inquiry: # returns recorded apparent KD of MS2 coat protein (system: MS2 coat protein) for GUUCCGGGAGGAUAUACAUGAGGAUCACCCAUGUUCACCAGCUUUAGCUACGACCUAUGUAGAAGGUCUGGAGA [Eternabot (L1) Solution 36] (Eterna round: R97, puzzle: Exclusion 3)
Reply text: 39.7

Inquiry: What measured apparent KD of MS2 coat protein is associated with CCUCGACAUGAGGAUCACCCAUGUAAGGAUAUGUUGACGAGCCUGAAAAGGCUGGUCAACAGAAGGUAUAUGUA [Exclusion 1 (Mod 1b.1 solution 16 by Eternabot)] (Eterna round: R97, puzzle: Exclusion 1) on MS2 coat protein?
Reply text: 28.4

Inquiry: Item CCCUCGGGAGGAUAUGGGUGUUUUUACAUGAGGAUCACCCAUGUGGAGUAGCAUGUGGGUCCAGAAGGCCCAAGGG [-27.5, -25.8 kcal, 22% A] (Eterna round: R97, puzzle: Exclusion 5) with MS2 coat protein - apparent KD of MS2 coat protein?
Reply text: 815

Inquiry: Identify the measured apparent KD of MS2 coat protein of GGCAUCGGAGGAUAUACUUAUGGUGAUGUUCGAAGCUUUCUACUUGAGGAUCACCCAAGUAGAAGGCCGAUGCC [jl-ex2.4.78 ViennaUCT mod] (Eterna round: R97, puzzle: Exclusion 2) for MS2 coat protein.
Reply text: 17.4

Inquiry: Test system MS2 coat protein; read-out apparent KD of MS2 coat protein; what value for CUUGUUUAUGUAGGAUAUGCCUGGCGUGCCUUUGCAGAAGGACAUGAGGAUCACCCAUGUAUUGCGGUCUGCGUUCAGAUCGCG [salish99_ExNG1_r4_043] (Eterna round: R96, puzzle: Exclusion NG 1) ?
Reply text: 34.9

Inquiry: API: value(readout= apparent KD of MS2 coat protein, system= MS2 coat protein, query= CCAUCACAUGAGGAUCACCCAUGUUAGGAUAUCAUUAGCCUCGGAGCUAUAGCGAGGUUGAGAAGGGACAUGUC [Eternabot (L1) Solution 87] (Eterna round: R97, puzzle: Exclusion 1) )
Reply text: 22.7

Inquiry: Could you share what apparent KD of MS2 coat protein was measured for AAUCAUAGGUAAGGAUAUGAAGAUCUGGUGGUGACAUGAGGAUCACCCAUGUGAAAACGAUGAGAUCAGAAGGUACAAUAUGAA [AK ExNG2-4] (Eterna round: R96, puzzle: Exclusion NG 2) , tested on MS2 coat protein?
Reply text: 88.3

Inquiry: # get_value(readout= apparent KD of MS2 coat protein, system= MS2 coat protein) for AGGCCCGAUGGAGGAUAUGUAAGUAAUUGAGAUACUUCAUGUCACAUGAGGAUCACCCAUGUACGGCAGAAGGCCGACGGAGCC [Raanoner] (Eterna round: R96, puzzle: Exclusion NG 2)
Reply text: 20

Data origin: the supplement of paper PMC9170038
